Reference source for all entries: the supplement of paper PMC10567573

B1: STK38L (parent)
chain: FLPGGDMMTLLMKKDTLTEEETQF

Variants of: B1
Assay: protein stability index of a GFP-peptide fusion (GPS, HEK-293T) (PSI 1-6); higher = more stable;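 further: lentivirally expressed fusions sorted by FACS into six bins by GFP to DsRed ratio, PSI derived from sequencing read proportions per bin multiplied by bin number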
Conditions: c terminus: a fixed tail appended
Record t whenever protein stability index is at 2 or higher; record f when lower.

Illustrative cases are given below, each with its answer.
RESIDUE CODES | GROUP
FLPGGDMMTLLMKKDTLTEEETQP | t
QLPGGDMMTLLMKKDTLTEEETQF | t
FLFGGDMMTLLMKKDTLTEEETQF | t
FQPGGDMMTLLMKKDTLTEEETQF | t
FLPGGDMMTLNMKKDTLTEEETQF | t

## Input Is protein stability index for "FLPGGDMMTLLMKKDTLTEEETQG" at or above 2?
## Output t

## Input Is protein stability index for "FLPGGDMMTLLMKQDTLTEEETQF" at or above 2?
## Output t

## Input Is protein stability index for "FLPGGDMMFLLMKKDTLTEEETQF" at or above 2?
## Output t

## Input Is protein stability index for "FLPGGDMMTLLMKKDTLYEEETQF" at or above 2?
## Output t

## Input Is protein stability index for "FLPGGDMMTLLMKPDTLTEEETQF" at or above 2?
## Output t

## Input Is protein stability index for "FSPGGDMMTLLMKKDTLTEEETQF" at or above 2?
## Output t
